# Test system: NCI-H522 lung
# test-summary: NCI tumour cell line growth inhibition, 48 h

- compound: "CC(=O)[O][Pb]([O]C(C)=O)([c]1ccccc1)[c]1ccccc1"
  TGI: "7.46 µM"
- compound: "CCCCCCn1c(SCC)c2ccccc2c1-c1nc(F)nc(F)n1"
  TGI: "> 100 µM"
- compound: "Nc1ncnc2sc(=S)c3c(c12)CCC3"
  TGI: "> 100 µM"
- compound: "O=C(NO)c1ccc([N+](=O)[O-])cc1"
  TGI: "97.2 µM"
- compound: "Fc1cc(C2=C[C@H](c3ccc(Cl)cc3)NC(=S)N2)c(Cl)cc1Cl"
  TGI: "> 100 µM"
- compound: "CC12CCC(=O)C=C1CCC1C2CCC2(C)C(C(=O)Cn3cnc4c(=S)nc[nH]c43)CCC12 (stereo unspecified)"
  TGI: "> 100 µM"
- compound: "COc1cc(/C=C\\c2ccccn2)cc(OC)c1OC"
  TGI: "> 100 µM"
- compound: "CCOC(=O)c1c2c(n(CC(C)C)c1C)-c1nc[nH]c1C(=O)C2=O"
  TGI: "29.4 µM"
- compound: "COc1ccc(C(=O)/C=C/c2ccc(Cl)cc2)cc1S(=O)(=O)Nc1c(N)nc(SC)[nH]c1=O"
  TGI: "4.08 µM"
- compound: "COc1cc(NC(C)=O)c2[nH]c3c(C)cc(NC(C)=O)c(C)c3c2c1"
  TGI: "> 100 µM"
- compound: "C[C@H]1[C@H](C)N(Cc2ccccc2)P(=O)(C(O)/C=C/c2ccccc2)N1Cc1ccccc1 (stereo partly specified)"
  TGI: "> 25 µM"
